Reference for the values: patent US12692269B2

Hi there, I'd appreciate the recorded TEAD1 YAP50-100 HTRF combined: Max % Inhibition for every entry that follows.
Molecular target: TEAD1 YAP50-100 (Homo sapiens)
Sequence (P28347 167-426 limits assumed): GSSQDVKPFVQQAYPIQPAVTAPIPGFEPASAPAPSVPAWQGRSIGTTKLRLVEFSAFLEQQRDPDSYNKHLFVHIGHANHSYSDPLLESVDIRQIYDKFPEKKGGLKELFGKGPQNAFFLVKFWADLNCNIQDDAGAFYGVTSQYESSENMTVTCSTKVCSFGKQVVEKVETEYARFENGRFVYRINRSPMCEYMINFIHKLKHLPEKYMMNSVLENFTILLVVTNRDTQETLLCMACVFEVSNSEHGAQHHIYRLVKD
Test: TEAD1-YAP HTRF (TR-FRET) protein-protein interaction assay
Type: binding
Conditions: TEAD1, YAP peptide 50-100, HTRF
Output spec: scalar in %, unitless text.

Reported TEAD1 YAP50-100 HTRF combined: Max % Inhibition of "CN(C)C(=O)c1nn2c(=O)cc(-c3ccc(CC4CCCC4)cc3)[nH]c2c1C(=O)N1CC(CF)C1" : 62.0

TEAD1 YAP50-100 HTRF combined: Max % Inhibition reading for "O=C(c1c(-c2ncccn2)nn2c(=O)cc(-c3ccc(C4CCCCC4)cc3)[nH]c12)N1CC(CF)C1" : 74.0

Entry Cc1nccnc1-c1nn2c(=O)cc(-c3ccc(C4CCCCC4)cc3)[nH]c2c1C(=O)N1C[C@H](CF)[C@@H]1C (single isomer, unassigned) [Isomer B, Example 41] ; TEAD1 YAP50-100 HTRF combined: Max % Inhibition = 80.0

Entry under test: Cc1nccnc1-c1nn2c(=O)cc(-c3ccc(OC(c4ccccc4)C(F)(F)F)cc3)[nH]c2c1C(=O)N1C[C@H](CF)[C@@H]1C (single isomer, unassigned) [Final product obtained using Enantiomer B from Step 1, Example 56] . Its TEAD1 YAP50-100 HTRF combined: Max % Inhibition was 66.0

Short answer for "O=C(c1c(-c2cnccn2)nn2c(=O)cc(-c3ccc(C4CCCCC4)c(F)c3)[nH]c12)N1CC(CF)C1" : TEAD1 YAP50-100 HTRF combined: Max % Inhibition was 70.0

In plain terms, "Cc1nccnc1-c1nn2c(=O)cc(-c3ccc(-c4ccccc4)cc3)[nH]c2c1C(=O)N1CC(CF)C1" has a documented TEAD1 YAP50-100 HTRF combined: Max % Inhibition of 80.0
